System: CAKI-1
Protocol Details: Cytotoxicity against human Caki1 cells assessed as cell growth at 10 uM after 48 hrs by SRB assay relative to control
Format: functional
Measurement Conditions: CAKI-1, 48 h, read-out: Activity
Experimental Readout: growth at 10 µM (%)
Answers are plain numbers, in %.

Mol: N#CCCCCCn1cc(C2=C(c3cn(CCCCCC#N)c4ccccc34)C(=O)NC2=O)c2ccccc21
Target Or Test System: CAKI-1
Units Of Measure: %
growth at 10 µM: 82.5
//
Mol: CC(C)n1cc(C2=C(c3cn(C)c4ccccc34)C(=O)N(O)C2=O)c2ccccc21
Target Or Test System: CAKI-1
Units Of Measure: %
growth at 10 µM: 72.7

Dear colleague, could you send me growth at 10 µM for each of the items below? Thanks.
1. Cn1cc(C2=C(c3cn(C)c4ncccc34)C(=O)NC2=O)c2ccccc21
2. O=C1C2=C(C(=O)N1O)c1cn(c3ccccc13)CCCCCCn1cc2c2ccccc21
3. CC(C)n1cc(C2=C(c3c[nH]c4ccccc34)C(=O)N(O)C2=O)c2ccccc21
4. Cn1cc(C2=C(c3c[nH]c4ccccc34)C(=O)N(O)C2=O)c2ccccc21
5. Cn1cc(C2=C(c3cn(C)c4ccccc34)C(=O)N(O)C2=O)c2ccccc21
6. Cn1cc(C2=C(c3cn(CCCCCC#N)c4ccccc34)C(=O)N(O)C2=O)c2ccccc21

Output line:
1: 35; 2: 95.7; 3: 78.3; 4: 61.5; 5: 90.1; 6: 81.3
